Give apparent KD of MS2 coat protein for every item shown.
test system: MS2 coat protein; experiment: apparent KD of MS2 coat protein; designed switch direction (-1 OFF switch, 1 ON switch): 1; higher = weaker reporter binding; settings: input ligand: microRNA oligo, concentration not stated
Answers are plain numbers, in nM.

Below, each entry is followed by its recorded apparent KD of MS2 coat protein result.
Query block: Item AUUUUUAAUGCAGGAUAUGAUUAACAUGAGGAUCACCCAUGUGGUGUUGUGAGUAAGGAGAGUGAUCAGAAGGGCAUUUUUAUU [JMF's solution 84] (Eterna round: R96, puzzle: Same State NG 2) has what recorded apparent KD of MS2 coat protein?
Result block: 450

Query block: Item UUUACUUUCAUAGGAUAUCAUGCGAAAAUUGCGUGAGAAGGGUGAAUACUGUCUUUCUAAGAGUACAUGAGGAUCACCCAUGUA [SameState NG1 #64] (Eterna round: R96, puzzle: Same State NG 1) has what recorded apparent KD of MS2 coat protein?
Result block: 45.8

Query block: Item GGUAGGUUACUACCAAACUACAUGAGGAUCACCCAUGUGUGGAAGGAUAUGGUACCUAUUUGGUACCAGAAGGUCCAAUUAAUU [Fiskers NG3ss - 5] (Eterna round: R96, puzzle: Same State NG 3) has what recorded apparent KD of MS2 coat protein?
Result block: 108

Query block: Item GGAAGGAGGUCAGGAUAUGAAUGGAAAGUACAUGAGGAUCACCCAUGUUAUGGAGGAAGGAAACGUUAGAAGGGAUAAGGAAGG [AK SSNG2-V2-2] (Eterna round: R96, puzzle: Same State NG 2) has what recorded apparent KD of MS2 coat protein?
Result block: 26.8

Query block: Item UGGCUGGUGCUAGGAUAUCCAUGAGGAAUCCUCGUAGAAGGAGCACGACAUGAGGAUCACCCAUGUAGCCGUCCGUAGACGGCU [salish99_SSNG1_r04_008] (Eterna round: R96, puzzle: Same State NG 1) has what recorded apparent KD of MS2 coat protein?
Result block: 185

Query block: Item CGUAGGAUAUGCAGAGGAUCACCCUGUAGAAGGACGAUUACACAGGAUAUGCAGAGGAUCACCCUGUAGAAGGGUGACUAAUCU [pwkr ssNG3 DX 2xF5 +2xFMN.3] (Eterna round: R96, puzzle: Same State NG 3) has what recorded apparent KD of MS2 coat protein?
Result block: 34.4

Go through the list and state apparent KD of MS2 coat protein for each entry.
1. CGUUCACAUGAGGAUCACCCAUGUCAGAUUUGGUCAGGAUAUGGUCGGCUUCCGCUAUUGCCAGAAGGGACUGUUG [JR_SS001_Sub705] (Eterna round: R96, puzzle: Same State 1)
2. AUACAUGAGGAUCACCCAUGUAAUUAAUUAACUAGUAAGAUCUAGGAUAUCAGCUCGAAUAGAGCUGAGAAGGAGAUCACAUGU [SSNG3/21-A1] (Eterna round: R96, puzzle: Same State NG 3)
3. GGAAUAUUUACAGGAUAUGAUUUGUUAAGUCGAUCAGAAGGGUGGAUGUCUUACACGGUUUGUUACAUGAGGAUCACCCAUGUC [SameState NG1 #14] (Eterna round: R96, puzzle: Same State NG 1)

Result block:
28.8
31.2
74
